system: KMS11 (human myeloma cell line); assay: Cell proliferation assay (CellTiter-Glo) in KMS11 cells; format: cell-based; settings: KMS-11, 72 h, Table 5, 3 days, read-out: KMS11-luc EC50
Give measured pEC50 for each item. Keep answers brief.
Bear in mind: pEC50 is minus log10 of a mol/L concentration; give just that figure.

Ask | // query pEC50 value for entry Cc1cc(F)c(-c2nc(C(=O)Nc3cnccc3[C@H]3C[C@@H](C)[C@](C)(O)[C@@H](N)C3)ccc2F)c(F)c1
Reply | 5.30

Ask | // query pEC50 value for entry CCOCc1cc(F)c(-c2nc(C(=O)Nc3cnccc3[C@H]3C[C@@H](N)[C@](C)(O)[C@@H](C)C3)ccc2F)c(F)c1
Reply | 7.01

Ask | // query pEC50 value for entry C[C@H]1C[C@@H](c2ccncc2NC(=O)c2nc(-c3c(F)cc(C(C)(C)O)cc3F)ccc2N)C[C@@H](O)[C@]1(C)O
Reply | 6.03

Ask | // query pEC50 value for entry C[C@H]1C[C@@H](c2ccncc2NC(=O)c2nc(-c3ncccc3F)c(F)cc2N)C[C@@H](O)C1(C)O (stereo in doubt)
Reply | 5.05

Ask | // query pEC50 value for entry C[C@H]1C[C@@H](c2ccncc2NC(=O)c2ccc(F)c(-c3c(F)cc(C4(O)CCC4)cc3F)n2)C[C@@H](N)[C@]1(C)O
Reply | 6.76

----------
tested on: KMS11 (human myeloma cell line); experiment: Cell proliferation assay (CellTiter-Glo) in KMS11 cells; type: cell-based; conditions: KMS-11, 72 h, Table 5, 3 days, read-out: KMS11-luc EC50
PARAMETER: EC50 (µM)
Give the value, in units of µM, as a plain number.

Ask | // query EC50 value for entry C[C@H]1C[C@@H](c2ccncc2NC(=O)c2nc(-c3ccc(F)c(F)c3)ccc2N)C[C@@H](O)[C@]1(C)O
Reply | 3.3

Ask | // query EC50 value for entry C[C@@H]1C[C@H](c2ccncc2NC(=O)c2ccc(F)c(-c3c(F)cc(C4(O)COC4)cc3F)n2)C[C@H](O)[C@@]1(C)O
Reply | 5.78

Ask | // query EC50 value for entry C[C@H]1C[C@@H](c2ccncc2NC(=O)c2ccc(F)c(-c3c(F)cc(O[C@@H]4CCCOC4)cc3F)n2)C[C@@H](N)[C@]1(C)O
Reply | 0.085

----------
test system: KMS11 (human myeloma cell line); test: Cell proliferation assay (CellTiter-Glo) in KMS11 cells; assay type: cell-based; settings: KMS-11, 72 h, Table 5, 3 days, read-out: KMS11-luc EC50
Give measured pEC50 for each item. Keep answers brief.
Bear in mind: pEC50 is minus log10 of a mol/L concentration; give just that figure.

Ask | // query pEC50 value for entry CC(C)Oc1cc(F)c(-c2nc(C(=O)Nc3cnccc3[C@H]3C[C@@H](N)[C@](C)(O)[C@@H](C)C3)ccc2F)c(F)c1
Reply | 6.78

Ask | // query pEC50 value for entry C[C@H]1C[C@@H](c2ccncc2NC(=O)c2nc(-c3c(F)cc(C4CCOCC4)cc3F)sc2N)C[C@@H](N)[C@]1(C)O
Reply | 6.15

Ask | // query pEC50 value for entry C[C@H]1C[C@@H](c2ccncc2NC(=O)c2ccc(F)c(-c3c(F)cc(OC4CCOCC4)cc3F)n2)C[C@@H](O)[C@]1(C)O
Reply | 6.25

Ask | // query pEC50 value for entry Cc1cc(F)c(-c2nc(C(=O)Nc3cnccc3[C@H]3C[C@@H](N)[C@](C)(O)[C@@H](C)C3)ccc2F)c(F)c1
Reply | 7.38

Ask | // query pEC50 value for entry C[C@H]1C[C@@H](c2ccncc2NC(=O)c2ccc(F)c(-c3c(F)cc(OC4CCNCC4)cc3F)n2)C[C@@H](O)[C@]1(C)O
Reply | 5.38
